- Method Notes: self-splicing fitness, log relative to wild type (ln ratio); higher = more splicing; Tetrahymena group I intron in knt gene, E. coli kanamycin selection, DiMSum; sequences stand for … in CUCUCU…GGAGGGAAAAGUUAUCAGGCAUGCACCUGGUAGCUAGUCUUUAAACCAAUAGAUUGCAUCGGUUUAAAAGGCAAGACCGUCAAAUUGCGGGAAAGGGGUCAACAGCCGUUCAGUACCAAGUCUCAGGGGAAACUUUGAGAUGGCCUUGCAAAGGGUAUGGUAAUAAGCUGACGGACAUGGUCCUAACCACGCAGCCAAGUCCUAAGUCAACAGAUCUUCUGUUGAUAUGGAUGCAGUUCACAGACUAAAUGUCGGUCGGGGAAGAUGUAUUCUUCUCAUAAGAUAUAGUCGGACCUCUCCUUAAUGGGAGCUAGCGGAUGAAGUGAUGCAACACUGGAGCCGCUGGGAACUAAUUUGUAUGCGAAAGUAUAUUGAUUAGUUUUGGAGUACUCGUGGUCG;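 further: selection with 25 µg/mL kanamycin versus none on LB agar overnight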
- Condition Details: 37 °C

{"Chain": "GCAUAGCAAUAUUACGCAGU", "self-splicing fitness (ln)": -1.81}
{"Chain": "CCUAAGCAAUAUUACGGUCC", "self-splicing fitness (ln)": -2.28}
{"Chain": "GUGAAGCAAUAUUACGAUUA", "self-splicing fitness (ln)": -0.124}
{"Chain": "GGUAAGCAAUAUUACGUUCA", "self-splicing fitness (ln)": 0.0273}
{"Chain": "CAAAAGCAAUAUUACGUGGC", "self-splicing fitness (ln)": -2.6}
{"Chain": "GGGGAGCAAUAUUACGAAAC", "self-splicing fitness (ln)": -0.654}
{"Chain": "UCAGAGCAAUAUUACGAGCA", "self-splicing fitness (ln)": -2.06}
{"Chain": "CCACAGCAAUAUUACGAAGG", "self-splicing fitness (ln)": -2.92}
{"Chain": "AACAAGCAAUAUUACGGUUA", "self-splicing fitness (ln)": -0.134}
{"Chain": "UCGCAGCAAUAUUACGGUUG", "self-splicing fitness (ln)": -1.47}
{"Chain": "GUGCAGCAAUAUUACGGAAG", "self-splicing fitness (ln)": -1.77}
{"Chain": "UAGUAGCAAUAUUACGUGGA", "self-splicing fitness (ln)": -1.29}
{"Chain": "UCUGAGCAAUAUUACGGAAG", "self-splicing fitness (ln)": -3.07}
{"Chain": "GAUAAGCAAUAUUACGGUGA", "self-splicing fitness (ln)": -1.1}
{"Chain": "CAUCAGCAAUAUUACGGAAA", "self-splicing fitness (ln)": -0.167}
{"Chain": "CAAGAGCAAUAUUACGUAAU", "self-splicing fitness (ln)": -2.7}
{"Chain": "GCGUAGCAAUAUUACGUUGG", "self-splicing fitness (ln)": -2.96}
{"Chain": "GGACAGCAAUAUUACGAGUC", "self-splicing fitness (ln)": -2.75}
{"Chain": "CAGAAGCAAUAUUACGAUUC", "self-splicing fitness (ln)": -1.98}
{"Chain": "UAAUAGCAAUAUUACGUGAC", "self-splicing fitness (ln)": -2.78}
{"Chain": "UGCAAGCAAUAUUACGACGU", "self-splicing fitness (ln)": -1.1}
{"Chain": "GGCAAGCAAUAUUACGGAGU", "self-splicing fitness (ln)": -0.542}
{"Chain": "AAGUAGCAAUAUUACGUCGA", "self-splicing fitness (ln)": -1.07}
{"Chain": "UCUCAGCAAUAUUACGGGAA", "self-splicing fitness (ln)": -0.762}
{"Chain": "UCAAAGCAAUAUUACGCACG", "self-splicing fitness (ln)": -0.632}
{"Chain": "ACCUAGCAAUAUUACGGGCA", "self-splicing fitness (ln)": 0.19}
{"Chain": "UUUGAGCAAUAUUACGUCUA", "self-splicing fitness (ln)": -1.06}
{"Chain": "UGGUAGCAAUAUUACGAUAA", "self-splicing fitness (ln)": -0.6}
{"Chain": "UAUAAGCAAUAUUACGAAAG", "self-splicing fitness (ln)": -2.44}
{"Chain": "UGCAAGCAAUAUUACGUGAG", "self-splicing fitness (ln)": -2.72}
{"Chain": "UGUUAGCAAUAUUACGGCAU", "self-splicing fitness (ln)": -1.95}
{"Chain": "CGGUAGCAAUAUUACGAACG", "self-splicing fitness (ln)": -1.29}
{"Chain": "CCCAAGCAAUAUUACGAGUC", "self-splicing fitness (ln)": -3.28}
{"Chain": "AUCUAGCAAUAUUACGGGAC", "self-splicing fitness (ln)": -1.03}
